# targetOrSystem: 3',5'-cyclic-AMP phosphodiesterase 4B (Homo sapiens, UniProt Q07343)
# Sequence (Q07343 whole entry): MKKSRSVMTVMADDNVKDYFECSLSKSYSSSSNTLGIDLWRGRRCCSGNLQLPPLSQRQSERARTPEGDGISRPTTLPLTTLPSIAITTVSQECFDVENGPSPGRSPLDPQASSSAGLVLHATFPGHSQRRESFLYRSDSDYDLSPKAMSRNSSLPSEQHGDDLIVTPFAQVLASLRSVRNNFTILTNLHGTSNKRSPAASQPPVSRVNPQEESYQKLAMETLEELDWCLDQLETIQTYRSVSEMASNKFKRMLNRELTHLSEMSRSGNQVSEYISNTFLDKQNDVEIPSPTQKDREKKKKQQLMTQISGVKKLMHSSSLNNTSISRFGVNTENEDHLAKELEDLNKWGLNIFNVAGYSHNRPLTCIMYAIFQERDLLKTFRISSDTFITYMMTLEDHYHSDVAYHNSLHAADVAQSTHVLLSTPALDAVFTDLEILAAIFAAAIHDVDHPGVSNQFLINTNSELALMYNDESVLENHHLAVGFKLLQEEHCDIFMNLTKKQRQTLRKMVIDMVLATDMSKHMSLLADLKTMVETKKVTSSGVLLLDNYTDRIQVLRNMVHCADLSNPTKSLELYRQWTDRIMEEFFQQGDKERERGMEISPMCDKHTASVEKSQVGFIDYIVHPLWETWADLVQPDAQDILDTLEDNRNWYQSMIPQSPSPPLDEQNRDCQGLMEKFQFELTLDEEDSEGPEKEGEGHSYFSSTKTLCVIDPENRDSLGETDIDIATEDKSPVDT
# testName: Inhibition of PDE4B isolated from human U937 cells using [3H]-cAMP as substrate after 30 mins
pIC50: −log10 of the molar value.
measureName: pIC50

// solved cases for pIC50 follow
Entry `COc1cc(C(=O)N2CCc3cc(OC)c(OC4CCCC4)cc3C2)ccc1O` has what pIC50?
5.64

// same read-out, input: `COc1cc2c(cc1OC1CCCC1)CN(C(=O)c1ccccc1F)CC2`
4.63

Next entry: `COc1cc2c(cc1OC1CCCC1)CN(C(=O)c1ccccc1Cl)CC2`
4.81

Record: `COc1cc2c(cc1OC1CCCC1)CN(C(=O)c1ccccc1)CC2`
4.63

1 = COc1cc2c(cc1OC1CCCC1)CN(C(=O)c1ccncc1)CC2
2 = COc1cc2c(cc1OC1CCCC1)CN(C(=O)c1ccccn1)CC2
Between these two entries, 1 and 2 , state which has the higher pIC50. Answer with the label corresponding to your selection.
1
